# assay_comment: protein stability index of a GFP-peptide fusion (yeast GPS) (PSI 1-4); higher = more stable; sorted into four equal gates, so the index is relative within each strain
# particulars: doa10∆
Please provide measured protein stability index for the entries that follow.

• GKPSFVFGASDKQAEGT [YOR098C/NUP1] = 3.33

For each listed entry, give its protein stability index.
1. EAAFRNIKTIAETLAEE [RPS5]
2. SSQVREHVKELLKYSNE [RPL1A]
3. MQNSKVESVCQKLDILV [SMC4]
4. AHRGIRHFWGLRVRGQH [RPS18A]
5. LDISVFLLEKAGERKIP [TAF14]
6. TKVNNQLIKVAVHNGGR [RPL9A]
7. GETRMKMLNEFVKKTSE [SMC2]

Response:
1: 2.79; 2: 1.63; 3: 2.26; 4: 2.82; 5: 2.26; 6: 1.92; 7: 3.28

For each listed entry, give its protein stability index.
1. SNNTGNTAFGNSNPTSN [YJL041W/NSP1]
2. DQVLNLCLTEFENCYLE [FAS1]
3. RSLRATAEERVGRRAAN [RPL15A]
4. ELALLNHWRQNKGRAVY [BRR2]
5. SSTQDVILRKISMLVTQ [CSI1]

Response:
3.01
3.15
3.56
1.21
1.62

For each listed entry, give its protein stability index.
1. TEALLLEHDVEYRPFSK [DIS3]
2. DFLRYINIKYLRLDGHT [SNF2]

Response:
3.18
2.5

For each listed entry, give its protein stability index.
1. SGQKAGLIAARRTGLLR [RPL2A]
2. TSYKKWSFDLPEMSNLY [PRP8]
3. LSIRLTNQLKSLKGLQS [RPN8]
4. QANQVKRHSYAQSSHIR [RPS1A]

Response:
3.07
2.6
1.48
2.53

For each listed entry, give its protein stability index.
1. GSYNAFEPASRLQGIKL [COR1]
2. VTIWYRAPELLLGARHY [SSN3]

Response:
1: 2.95; 2: 1.9

For each listed entry, give its protein stability index.
1. SIVTVVSSAKFSGKYLK [RPL22B]
2. TMLELLNQLDGFETSKN [RPT6]
3. HYVSTSKISQMAQNKTH [YLR018C/POM34]

Response:
2.8
2.92
1.56
